Experiment: Multiple ascending dose (MAD) part, plasma pharmacokinetics
Format: in vivo, human
Details: human, plasma, oral; Treatment B (200 mg, b.i.d. Days 2-7), Day 8; median
Measured Parameter: Tmax (h)

| Molecule | Measured Parameter | Quantitative Result |
| --- | --- | --- |
| Cc1cccc(COc2ccc(Sc3ccoc3C3NC(=O)NC3=O)cc2)c1 (stereo not shown) | Tmax | 1.5 |

###

Assay: Food effect (FE) part, plasma pharmacokinetics
Assay type: in vivo, human
Settings: human, plasma, po, 200 mg, Treatment D: 200 mg single oral dose, fasted; geometric least-squares mean; read-out: Cmax GM

| Molecule | Unit | Cmax |
| --- | --- | --- |
| Cc1cccc(COc2ccc(Sc3ccoc3C3NC(=O)NC3=O)cc2)c1 (stereo not shown) | ng/mL | 1020 |
